Attribution: patent US20110224240A1

test summary: Pharmacokinetic study in mice, plasma
Assay type: in vivo
cond: Swiss Webster, mouse, plasma, po, 60 mg/kg, 60 mg/kg dose in mice, oral; read-out: half life (t1/2) (converted)
Procedure: Animals were dosed with approximately 2.5 mg/kg i.v. in the tail vein or 5, 10, 30, or 60 mg/kg p.o. in fed and 60 mg/kg p.o. in a fasted state. Blood samples and whole brains were collected from five mice at each of the […] collection time points (approximately 0.05, 0.25, 1.0, 2.0, 4.0, 8.0, 12.0 and 24.0 hours) after administration of the dose. Plasma was collected from blood samples, and whole brain sample were homoginized. Both tissues were analyzed for the concentration of Compound 1. […]
measure: half-life

compound COc1ccc(N(C)c2nc(CN)nc3ccccc23)cc1 [Compound 1] , half-life observed: ~10 h
